Species on record: Rattus norvegicus
method notes: Selectivity ratio of IC50 for recombinant rat GluN2A receptor to IC50 for recombinant rat GluN2D receptor
recorded endpoint: Ratio IC50

Answered examples (2):
O=C(O)CCC(=O)N1N=C(c2c(-c3ccc(F)c(Cl)c3)c3ccccc3[nH]c2=O)CC1c1ccc(Cl)cc1 (stereo not drawn)	19
O=C(O)CCC(=O)N1N=C(c2c(-c3ccccc3)c3cc(Cl)ccc3[nH]c2=O)CC1c1ccc(C(F)(F)F)cc1 (stereo not drawn)	20

# input for lookup
Ask | Can you share its Ratio IC50? I mean this molecule: Cc1ccc(-c2c(C3=NN(C(=O)CCC(=O)O)C(c4ccc(Cl)cc4)C3)c(=O)[nH]c3ccccc23)cc1 (stereo not drawn)
Reply | 24

---

Measured Ratio IC50, listed per entry for reference.
Species: Rattus norvegicus
method notes: Selectivity ratio of IC50 for recombinant rat GluN2B receptor to IC50 for recombinant rat GluN2D receptor
// return a plain number; no unit text

O=C(O)CCC(=O)N1N=C(c2c(-c3cccc(Cl)c3)c3ccccc3[nH]c2=O)CC1c1ccc(Cl)cc1 (stereo unspecified)	43
O=C(O)CCC(=O)N1N=C(c2c(-c3ccc(F)c(F)c3)c3ccccc3[nH]c2=O)CC1c1ccc(Cl)cc1 (stereo unspecified)	108
O=C(O)CCC(=O)N1N=C(c2c(-c3ccc(Cl)cc3)c3ccccc3[nH]c2=O)CC1c1ccc(Br)cc1 (stereo unspecified)	67
O=C(O)CCCC(=O)N1N=C(c2c(-c3ccccc3)c3cc(Cl)ccc3[nH]c2=O)CC1c1ccc(Br)cc1 (stereo unspecified)	23
COc1ccc(-c2c(C3=NN(C(=O)CCC(=O)O)C(c4ccc(Cl)cc4)C3)c(=O)[nH]c3ccccc23)cc1 (stereo unspecified)	33

# input for lookup
Ask | Can you share its Ratio IC50? I mean this compound: COc1cccc(-c2c(C3=NN(C(=O)CCC(=O)O)C(c4ccc(Cl)cc4)C3)c(=O)[nH]c3ccccc23)c1 (stereo unspecified)
Reply | 34

---

system tested: Glutamate receptor ionotropic, NMDA 2B (Rattus norvegicus, UniProt P35439+Q00960)
Sequence (Q00960 whole entry, one chain of several): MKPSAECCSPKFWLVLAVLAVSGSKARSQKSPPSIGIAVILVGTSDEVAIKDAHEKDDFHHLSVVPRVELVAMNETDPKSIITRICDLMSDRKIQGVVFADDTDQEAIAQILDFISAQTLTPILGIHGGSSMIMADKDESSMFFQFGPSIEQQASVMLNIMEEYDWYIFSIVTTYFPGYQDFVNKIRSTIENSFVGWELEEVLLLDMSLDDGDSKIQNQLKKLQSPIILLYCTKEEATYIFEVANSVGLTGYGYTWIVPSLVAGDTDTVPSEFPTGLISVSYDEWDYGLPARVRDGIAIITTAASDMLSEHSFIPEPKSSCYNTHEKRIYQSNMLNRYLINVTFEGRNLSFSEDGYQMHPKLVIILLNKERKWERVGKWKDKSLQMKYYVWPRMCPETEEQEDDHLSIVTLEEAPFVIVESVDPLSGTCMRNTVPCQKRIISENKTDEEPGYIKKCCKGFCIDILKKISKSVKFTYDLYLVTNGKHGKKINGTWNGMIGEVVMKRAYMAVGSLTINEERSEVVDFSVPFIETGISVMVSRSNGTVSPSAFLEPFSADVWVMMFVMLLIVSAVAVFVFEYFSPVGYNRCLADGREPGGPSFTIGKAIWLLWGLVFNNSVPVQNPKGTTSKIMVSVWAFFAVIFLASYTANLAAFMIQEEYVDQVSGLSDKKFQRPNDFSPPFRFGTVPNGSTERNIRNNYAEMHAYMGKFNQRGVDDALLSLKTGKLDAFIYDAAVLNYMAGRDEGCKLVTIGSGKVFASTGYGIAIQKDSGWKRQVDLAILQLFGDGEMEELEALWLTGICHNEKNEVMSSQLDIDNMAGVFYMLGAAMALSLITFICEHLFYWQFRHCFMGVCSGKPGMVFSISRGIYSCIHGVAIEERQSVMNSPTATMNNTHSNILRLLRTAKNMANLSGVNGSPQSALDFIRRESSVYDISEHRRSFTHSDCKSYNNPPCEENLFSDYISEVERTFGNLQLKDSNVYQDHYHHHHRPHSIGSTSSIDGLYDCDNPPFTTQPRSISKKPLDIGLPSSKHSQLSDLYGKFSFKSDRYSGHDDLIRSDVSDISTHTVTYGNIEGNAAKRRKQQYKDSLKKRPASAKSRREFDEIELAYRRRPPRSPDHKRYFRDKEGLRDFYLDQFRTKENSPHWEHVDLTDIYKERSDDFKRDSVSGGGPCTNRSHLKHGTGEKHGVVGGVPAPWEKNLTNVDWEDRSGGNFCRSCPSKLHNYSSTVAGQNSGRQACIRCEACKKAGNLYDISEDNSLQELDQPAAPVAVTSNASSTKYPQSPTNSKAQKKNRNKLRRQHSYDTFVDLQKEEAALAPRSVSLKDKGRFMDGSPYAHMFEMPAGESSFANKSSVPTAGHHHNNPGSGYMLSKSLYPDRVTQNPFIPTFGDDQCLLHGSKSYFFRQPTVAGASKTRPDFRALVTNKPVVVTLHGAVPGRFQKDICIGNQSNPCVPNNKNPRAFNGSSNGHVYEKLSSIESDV
method notes: Negative allosteric modulation of recombinant rat GluN2B receptor expressed in Xenopus laevis oocytes by two-electrode voltage clamp method
recorded endpoint: pIC50
pIC50 is a log-scale quantity: -log10 of the concentration expressed in molar.

Answered examples (3):
O=C(O)CCC(=O)N1N=C(c2c(-c3ccc(Cl)cc3)c3ccccc3[nH]c2=O)C[C@@H]1c1ccc(Cl)cc1	4.28
O=C(O)CCC(=O)N1N=C(c2c(-c3ccc(Cl)cc3)c3ccccc3[nH]c2=O)CC1c1ccccc1 (stereo not drawn)	3.84
NC(=O)CCC(=O)N1N=C(c2c(-c3ccc(Cl)cc3)c3ccccc3[nH]c2=O)CC1c1ccc(Cl)cc1 (stereo not drawn)	4.70

Ask | Lab request: please report pIC50 under test system Glutamate receptor ionotropic, NMDA 2B (Rattus norvegicus, UniProt P35439+Q00960) for O=C(O)/C=C\C(=O)N1N=C(c2c(-c3ccc(Br)cc3)c3ccccc3[nH]c2=O)CC1c1ccc(Cl)cc1 (stereo not drawn)
Reply | 4.77

Ask | Lab request: please report pIC50 under test system Glutamate receptor ionotropic, NMDA 2B (Rattus norvegicus, UniProt P35439+Q00960) for Cc1cccc(-c2c(C3=NN(C(=O)CCC(=O)O)C(c4ccc(Cl)cc4)C3)c(=O)[nH]c3ccccc23)c1 (stereo not drawn)
Reply | 4.15

Ask | Lab request: please report pIC50 under test system Glutamate receptor ionotropic, NMDA 2B (Rattus norvegicus, UniProt P35439+Q00960) for O=C(O)/C=C/C(=O)N1N=C(c2c(-c3ccc(Br)cc3)c3ccccc3[nH]c2=O)CC1c1ccc(Cl)cc1 (racemic)
Reply | 4.92

Ask | Lab request: please report pIC50 under test system Glutamate receptor ionotropic, NMDA 2B (Rattus norvegicus, UniProt P35439+Q00960) for O=C(O)CCC(=O)N1N=C(c2c(-c3cccc(F)c3)c3ccccc3[nH]c2=O)CC1c1ccc(Cl)cc1 (stereo not drawn)
Reply | 4.15

Ask | Lab request: please report pIC50 under test system Glutamate receptor ionotropic, NMDA 2B (Rattus norvegicus, UniProt P35439+Q00960) for O=C(O)CCC(=O)N1N=C(c2c(-c3ccc(Cl)cc3)c3ccccc3[nH]c2=O)CC1c1ccc(F)cc1 (stereo not drawn)
Reply | 4.05

Entry source: ChEMBL document CHEMBL2424574
